Reported RU values for the following binders.
Target: T1, LAG3 Protein, Human, Recombinant (His Tag) (Sino Biological Catalog No. 16498-H08H) (human, UniProt P18627 23-450)
T1 construct: Bought protein; also called hLAG3-His; LAG3-His; not shown: His tag
T1 sequence (looked up): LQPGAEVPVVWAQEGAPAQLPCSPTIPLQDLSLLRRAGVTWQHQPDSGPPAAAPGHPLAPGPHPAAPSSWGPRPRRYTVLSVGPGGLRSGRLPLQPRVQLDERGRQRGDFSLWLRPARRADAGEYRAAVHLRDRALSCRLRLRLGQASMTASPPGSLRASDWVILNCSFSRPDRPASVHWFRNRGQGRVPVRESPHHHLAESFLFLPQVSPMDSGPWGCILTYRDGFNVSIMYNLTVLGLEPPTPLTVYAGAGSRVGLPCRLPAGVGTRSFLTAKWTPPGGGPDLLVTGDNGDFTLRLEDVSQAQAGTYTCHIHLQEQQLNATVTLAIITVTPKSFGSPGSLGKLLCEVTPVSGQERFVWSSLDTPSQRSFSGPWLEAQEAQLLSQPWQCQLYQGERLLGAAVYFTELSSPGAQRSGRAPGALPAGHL
Assay: SPR binning on LAG3-His; competitor 24

>>> result_value("sdAb No. 27 (VHH, Fc of the tested form not described; also called sdAb 27; not shown: Fc part implied by anti-human Fc capture and anti-human IgG Fc detection) VHH: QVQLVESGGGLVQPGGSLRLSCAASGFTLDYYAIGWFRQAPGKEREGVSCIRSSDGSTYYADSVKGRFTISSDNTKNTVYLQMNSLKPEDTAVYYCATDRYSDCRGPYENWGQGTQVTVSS")
"-10.1 RU"
>>> result_value("sdAb No. 18 (VHH, Fc of the tested form not described; also called sdAb 18; not shown: Fc part implied by anti-human Fc capture) VHH: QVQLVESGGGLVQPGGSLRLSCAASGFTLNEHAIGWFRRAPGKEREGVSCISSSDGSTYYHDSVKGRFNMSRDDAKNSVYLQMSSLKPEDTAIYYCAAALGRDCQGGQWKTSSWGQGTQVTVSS")
"-9.9 RU"

Shift focus to the following entry.
Qu. Please look at this binder and report its RU: sdAb No. 24 (VHH, Fc of the tested form not described; also called sdAb 24; not shown: Fc part implied by anti-human Fc capture) VHH: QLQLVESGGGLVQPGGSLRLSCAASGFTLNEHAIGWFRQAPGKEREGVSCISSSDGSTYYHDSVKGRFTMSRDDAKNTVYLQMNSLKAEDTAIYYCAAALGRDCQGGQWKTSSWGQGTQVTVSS
Ans. -10.1 RU
